TESTED_ON: T1, human IL-33 (R&D Systems, #3625-IL-010/CF) (human, UniProt O95760 112-270)
T1 construct: Commercial recombinant protein; also called hIL-33; interleukin-33
T1 sequence (looked up): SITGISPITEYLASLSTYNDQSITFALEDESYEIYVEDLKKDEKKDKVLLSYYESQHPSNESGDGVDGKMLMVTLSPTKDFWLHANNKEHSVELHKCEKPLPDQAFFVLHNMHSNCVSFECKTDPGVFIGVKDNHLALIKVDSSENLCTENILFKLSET
EXPERIMENT: SPR 25C, pH6.0 chase, mAb captured
Description: Equilibrium dissociation constants (KD values) for IL-33 binding to purified anti-IL-33 monoclonal antibodies were determined using a real-time surface plasmon resonance biosensor using a Biacore 4000 instrument. […] Association of either hIL-33 or MfIL-33-6His to the captured monoclonal antibody was monitored for 4 minutes and their dissociation in ABS-ET running buffer was monitored for 10 minutes. […]
Please respond with reported t½ for every item in the list.
Numbers only, in min.

Consider the following illustrative entries.
BINDER	NUMERIC_RESULT
H4H9671P (antibody, human IgG4, V domains shown, Human IgG4 Fc (H4H)) VH: EVQLVESGGGLVQPGGSLRLSCAASGFTLRSYFMTWVRQVPGKGLEGVSAISGISGGTYYTDSVKGRFTISRDNSKNTLFLQMNSLRAEDTAVYFCARTVYSSSYYGGFQHWGQGTLVTVSS VL: DIQMTQSPSSVSVSVGDRVTITCRASQGISSWLAWYQQKPGKAPKLLIYVASSLQSGVPSRFSGSGSGTDFTLTISSLQPEDFATYYCQQTNSFPLTFGGGTKVEIK	7
H1M9566N (antibody, mouse IgG1, V domains shown, Human variable domains, mouse IgG1 Fc (H1M)) VH: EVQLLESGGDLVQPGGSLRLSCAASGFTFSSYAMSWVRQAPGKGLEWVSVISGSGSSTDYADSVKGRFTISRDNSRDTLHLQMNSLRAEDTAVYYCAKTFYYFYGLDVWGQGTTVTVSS VL: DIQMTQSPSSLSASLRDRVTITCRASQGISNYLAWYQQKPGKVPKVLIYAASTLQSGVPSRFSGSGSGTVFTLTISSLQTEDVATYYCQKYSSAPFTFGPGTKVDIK	105

Please examine the following record next.
Answer with the recorded t½ for the binder listed here: H4H9663P (antibody, human IgG4, V domains shown, Human IgG4 Fc (H4H)) VH: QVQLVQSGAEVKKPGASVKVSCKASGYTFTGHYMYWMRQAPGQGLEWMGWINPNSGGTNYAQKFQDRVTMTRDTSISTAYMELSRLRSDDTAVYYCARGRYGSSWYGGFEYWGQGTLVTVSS VL: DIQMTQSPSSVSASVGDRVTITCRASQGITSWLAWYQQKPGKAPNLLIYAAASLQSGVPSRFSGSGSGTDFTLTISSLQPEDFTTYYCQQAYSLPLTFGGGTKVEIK
11
